- test_target: human HDAC4 (Homo sapiens, UniProt P56524)
- Construct: made in house; host or cells: 293T cells (transient transfection, anti-FLAG immunoprecipitation, FLAG peptide elution)
- Sequence (P56524 whole entry): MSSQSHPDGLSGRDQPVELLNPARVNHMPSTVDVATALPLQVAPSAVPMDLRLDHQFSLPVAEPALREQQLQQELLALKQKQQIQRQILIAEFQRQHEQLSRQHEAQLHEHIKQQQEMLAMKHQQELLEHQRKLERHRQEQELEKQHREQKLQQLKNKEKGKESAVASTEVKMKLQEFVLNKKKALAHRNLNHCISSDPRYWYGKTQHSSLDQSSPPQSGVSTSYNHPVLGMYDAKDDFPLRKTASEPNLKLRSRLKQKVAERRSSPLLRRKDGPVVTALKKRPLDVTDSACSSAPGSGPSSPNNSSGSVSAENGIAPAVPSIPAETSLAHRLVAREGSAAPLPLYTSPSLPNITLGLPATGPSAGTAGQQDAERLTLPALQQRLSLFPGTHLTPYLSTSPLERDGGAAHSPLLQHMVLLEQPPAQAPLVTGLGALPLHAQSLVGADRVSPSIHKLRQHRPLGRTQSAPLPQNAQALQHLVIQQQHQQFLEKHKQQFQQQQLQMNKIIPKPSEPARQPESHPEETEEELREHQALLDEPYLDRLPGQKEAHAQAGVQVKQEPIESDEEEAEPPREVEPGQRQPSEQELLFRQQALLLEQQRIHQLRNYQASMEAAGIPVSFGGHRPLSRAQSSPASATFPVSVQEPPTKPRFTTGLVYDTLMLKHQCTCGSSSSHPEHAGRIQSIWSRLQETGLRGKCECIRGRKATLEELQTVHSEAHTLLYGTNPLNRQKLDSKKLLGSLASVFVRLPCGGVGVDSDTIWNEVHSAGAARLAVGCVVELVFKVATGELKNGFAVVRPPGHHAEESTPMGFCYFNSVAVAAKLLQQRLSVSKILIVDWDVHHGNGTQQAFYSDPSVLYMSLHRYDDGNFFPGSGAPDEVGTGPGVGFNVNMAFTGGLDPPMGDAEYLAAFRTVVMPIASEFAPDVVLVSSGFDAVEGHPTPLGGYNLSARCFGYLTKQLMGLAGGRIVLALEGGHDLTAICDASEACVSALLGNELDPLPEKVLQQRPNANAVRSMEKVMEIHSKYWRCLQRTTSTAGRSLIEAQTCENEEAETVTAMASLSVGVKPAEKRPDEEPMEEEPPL
- Sequence (O15379 whole entry, further chain): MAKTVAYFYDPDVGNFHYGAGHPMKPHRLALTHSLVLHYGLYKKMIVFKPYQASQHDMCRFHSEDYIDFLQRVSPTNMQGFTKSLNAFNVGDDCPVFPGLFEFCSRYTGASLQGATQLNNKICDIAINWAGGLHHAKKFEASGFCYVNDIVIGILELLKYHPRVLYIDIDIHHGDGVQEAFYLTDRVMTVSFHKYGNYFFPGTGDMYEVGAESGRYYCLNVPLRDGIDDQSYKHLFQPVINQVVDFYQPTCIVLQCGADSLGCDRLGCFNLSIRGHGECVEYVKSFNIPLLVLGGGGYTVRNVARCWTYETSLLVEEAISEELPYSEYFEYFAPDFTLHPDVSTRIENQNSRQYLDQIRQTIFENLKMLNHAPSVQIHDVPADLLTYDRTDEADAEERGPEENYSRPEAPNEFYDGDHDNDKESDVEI
- protocol_summary: HDAC-inhibiting activity, coumarin-labeled acetylated histone peptide assay
- Type: biochemical
- test_settings: human HDAC4 from transfected 293T cells; 37° C., 30 minutes; read-out: HDAC-inhibiting activity IC50 HDAC4
Quick reference: IC50 of the listed items.
Kindly answer with a numeric value in nM, unit omitted.

Guide cases for IC50, answers given:
CC1(C)NC(=O)[C@H](CCCCCSCc2cccnc2)NC(=O)[C@H]2CCCN2C(=O)[C@H](Cc2ccccc2)NC1=O
330
CC(=O)SCC(=O)CCCCC[C@@H]1NC(=O)[C@H]2CCCN2C(=O)[C@H](Cc2ccccc2)NC(=O)C(C)(C)NC1=O [Ky-18, cyclo(-L-Ae9(Actmk)-Aib-L-Phe-D-Pro-)]
190
CC1(C)NC(=O)[C@H](CCCCCSCc2ccccc2)NC(=O)[C@H]2CCCN2C(=O)[C@H](Cc2ccccc2)NC1=O [Ky-69, cyclo(-L-Am7(benzyl)-Aib-L-Phe-D-Pro-)]
6.5

From here, focus on the item given below.
The reported IC50 value, human HDAC4 (Homo sapiens, UniProt P56524), for CC(=O)CSCCCCC[C@@H]1NC(=O)[C@H]2CCCN2C(=O)[C@H](Cc2ccccc2)NC(=O)C(C)(C)NC1=O [Ky-72, cyclo(-L-Am7(acetonyl)-Aib-L-Phe-D-Pro-)] reads 1600
